The measurements presented in this section are drawn from paper PMC11207335.

Biological target: BCRP (Homo sapiens)
Construct: host or cells: LLC-PK1 (porcine kidney cells)
Sequence (Q9UNQ0 1-655): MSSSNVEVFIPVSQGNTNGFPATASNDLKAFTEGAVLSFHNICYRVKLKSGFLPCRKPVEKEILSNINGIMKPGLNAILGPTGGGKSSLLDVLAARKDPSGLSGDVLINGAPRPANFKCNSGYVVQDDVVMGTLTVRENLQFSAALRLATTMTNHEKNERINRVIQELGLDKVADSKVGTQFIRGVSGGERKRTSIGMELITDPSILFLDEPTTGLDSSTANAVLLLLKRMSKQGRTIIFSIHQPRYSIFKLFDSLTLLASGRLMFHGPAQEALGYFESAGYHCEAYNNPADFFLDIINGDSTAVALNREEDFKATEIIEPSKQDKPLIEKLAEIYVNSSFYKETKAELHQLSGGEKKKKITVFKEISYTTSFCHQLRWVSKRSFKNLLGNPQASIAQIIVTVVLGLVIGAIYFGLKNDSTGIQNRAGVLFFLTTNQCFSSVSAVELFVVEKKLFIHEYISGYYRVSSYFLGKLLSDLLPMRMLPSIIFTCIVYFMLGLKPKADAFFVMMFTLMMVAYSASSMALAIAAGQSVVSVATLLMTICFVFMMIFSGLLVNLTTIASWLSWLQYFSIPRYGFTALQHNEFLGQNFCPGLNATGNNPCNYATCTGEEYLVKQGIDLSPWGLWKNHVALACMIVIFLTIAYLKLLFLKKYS
Test: Permeability in LLC-PK1-BCRP cells
Assay type: in vitro ADME
Details: pig, pH 7.4, with Ko134 1 μM; 4 μM, LLC-PK1-BCRP, Ko134 1 μM
observable: Papp B→A at 1 h, 4 µM (×10⁻⁶ cm/s)
Numbers only; they are read as ×10⁻⁶ cm/s.

1. Cc1cccc(CO)c1CNc1cc(C(=O)N2CCC2)cn2c(C)c(C)nc12 :: 47.3

# input for lookup
Query (compound): `Cc1cccc(C)c1CNc1cc(C(=O)N2CCC2)cn2c(C)c(C)nc12` ; field requested: Papp B→A at 1 h, 4 µM
22.6
